Target: IgE of patient serum 5
Assay: ELISA inhibition, serum 5 pre-incubated with 1.25 µg/ml inhibitor; competitor: wt Bet v 1 adsorbed on wells
READOUT KIND: % inhibition of Bet v 1-IgE binding (%)

INSERT INTO measurements (binder, readout_kind, recorded_value) VALUES
  ('wild-type Bet v 1-Mal d 1 hybrid molecule (SEQ ID NO: 3) (protein) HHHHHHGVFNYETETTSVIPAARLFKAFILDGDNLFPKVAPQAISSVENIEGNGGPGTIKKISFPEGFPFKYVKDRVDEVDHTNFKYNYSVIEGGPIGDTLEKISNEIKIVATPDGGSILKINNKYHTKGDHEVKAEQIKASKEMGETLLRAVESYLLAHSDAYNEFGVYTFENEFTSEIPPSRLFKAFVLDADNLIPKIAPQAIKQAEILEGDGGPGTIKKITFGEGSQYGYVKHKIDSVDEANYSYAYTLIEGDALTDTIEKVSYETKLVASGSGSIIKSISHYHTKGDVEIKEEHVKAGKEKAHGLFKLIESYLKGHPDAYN', '% inhibition of Bet v 1-IgE binding', 50.8),
  ('mutant Bet v 1-Mal d 1 hybrid molecule (SEQ ID NO: 4) (protein) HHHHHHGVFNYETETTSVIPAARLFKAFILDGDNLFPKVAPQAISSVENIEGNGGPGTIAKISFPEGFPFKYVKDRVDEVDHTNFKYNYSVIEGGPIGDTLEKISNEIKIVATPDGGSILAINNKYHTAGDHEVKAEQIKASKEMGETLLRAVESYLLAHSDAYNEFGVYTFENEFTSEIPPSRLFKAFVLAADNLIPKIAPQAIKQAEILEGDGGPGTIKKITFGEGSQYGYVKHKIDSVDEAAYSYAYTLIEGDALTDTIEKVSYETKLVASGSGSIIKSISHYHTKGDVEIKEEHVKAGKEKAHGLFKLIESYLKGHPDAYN', '% inhibition of Bet v 1-IgE binding', 7.8),
  ('mixture of the single wt allergens (wt Bet v 1 and wt Mal d 1) (protein) chain 1: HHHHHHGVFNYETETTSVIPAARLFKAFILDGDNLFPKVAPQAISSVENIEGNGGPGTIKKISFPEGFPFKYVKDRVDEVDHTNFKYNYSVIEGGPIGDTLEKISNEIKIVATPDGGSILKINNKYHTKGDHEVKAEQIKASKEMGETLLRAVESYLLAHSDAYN chain 2: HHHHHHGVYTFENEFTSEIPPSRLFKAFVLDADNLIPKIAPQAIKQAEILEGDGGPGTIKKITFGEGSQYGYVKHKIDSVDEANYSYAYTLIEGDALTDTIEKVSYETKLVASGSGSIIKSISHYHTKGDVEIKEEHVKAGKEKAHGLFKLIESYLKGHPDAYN', '% inhibition of Bet v 1-IgE binding', 91.6),
  ('mixture of the two mutagenised allergens (mut Bet v 1-SEQ ID NO:6 and mut Mal d 1-SEQ ID NO:2) (protein) chain 1: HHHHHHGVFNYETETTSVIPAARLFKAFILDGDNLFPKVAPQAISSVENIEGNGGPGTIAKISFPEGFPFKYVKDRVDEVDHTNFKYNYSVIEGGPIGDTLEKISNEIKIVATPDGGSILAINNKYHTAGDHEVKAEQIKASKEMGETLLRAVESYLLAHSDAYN chain 2: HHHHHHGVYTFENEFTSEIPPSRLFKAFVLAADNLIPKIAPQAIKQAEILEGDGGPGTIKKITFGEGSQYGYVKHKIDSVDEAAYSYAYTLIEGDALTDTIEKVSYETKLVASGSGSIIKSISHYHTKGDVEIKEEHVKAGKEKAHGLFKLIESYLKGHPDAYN', '% inhibition of Bet v 1-IgE binding', 41);
